Reference source: paper PMC7145629

target-system: DNMT1 (BAH1-BAH2-MTase fragment) (human, UniProt P26358 728-1600)
Sequence (P26358 728-1600): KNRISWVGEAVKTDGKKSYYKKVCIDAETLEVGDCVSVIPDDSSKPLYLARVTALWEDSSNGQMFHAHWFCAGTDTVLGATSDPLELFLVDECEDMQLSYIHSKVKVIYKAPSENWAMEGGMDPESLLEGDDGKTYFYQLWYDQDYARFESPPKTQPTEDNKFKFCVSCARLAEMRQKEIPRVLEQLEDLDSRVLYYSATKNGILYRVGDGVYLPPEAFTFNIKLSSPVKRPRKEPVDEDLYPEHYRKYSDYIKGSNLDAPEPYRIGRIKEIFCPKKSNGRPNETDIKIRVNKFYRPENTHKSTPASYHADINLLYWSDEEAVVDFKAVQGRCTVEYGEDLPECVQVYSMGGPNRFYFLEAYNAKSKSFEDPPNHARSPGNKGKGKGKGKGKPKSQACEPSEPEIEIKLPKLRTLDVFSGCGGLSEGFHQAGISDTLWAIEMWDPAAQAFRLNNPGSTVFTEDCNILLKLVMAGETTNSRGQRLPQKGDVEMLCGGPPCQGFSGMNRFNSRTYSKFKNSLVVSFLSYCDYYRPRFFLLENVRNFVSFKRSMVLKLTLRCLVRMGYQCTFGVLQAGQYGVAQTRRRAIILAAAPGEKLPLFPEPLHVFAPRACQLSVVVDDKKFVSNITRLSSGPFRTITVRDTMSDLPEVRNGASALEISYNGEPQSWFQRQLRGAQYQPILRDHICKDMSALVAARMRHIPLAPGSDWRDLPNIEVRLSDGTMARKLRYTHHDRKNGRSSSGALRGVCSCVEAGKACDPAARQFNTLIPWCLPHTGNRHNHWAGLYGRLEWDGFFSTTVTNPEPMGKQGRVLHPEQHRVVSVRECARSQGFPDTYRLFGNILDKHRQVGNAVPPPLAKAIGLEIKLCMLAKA
assay-remarks: EMSA
observation-type: binding result

Look over these answered cases.
Consider CCCATGCGTAGGGTCTGATGCCTATGCGTG (ssDNA) [Apt. #10] . Its measured binding result is binds

Consider CGTAGATGTGCGAGTGACATCTACGG (ssDNA) [Apt. #8] . Its measured binding result is binds

Consider TGCGAGTGACATCTCAACGG (ssDNA) [non-binding ssDNA #12] . Its measured binding result is no binding

Consider CGTCAGATGTGCGAGTGACATCTCAACGG (ssDNA) [Modified ssDNA #5] . Its measured binding result is no binding

Consider CGTAGATGTGCTGACATCTACGG (ssDNA) [Modified ssDNA #6] . Its measured binding result is no binding

Next binder, binding result to be filled in.
Consider AGATGTGCGAGTGACATCTCAACGGCCTAT (ssDNA) [Apt. #11] . Its measured binding result is binds
